meta.source: paper PMC10505172

Target: HIS:SUMO:HD2 fusion protein (tick; entry name EVA4_RHISA, the …)
Experiment: BLI
Measurement kind: Kd (nM)
State just the number; it will be interpreted in nM.

Reported Kd of CCL8 (ligand) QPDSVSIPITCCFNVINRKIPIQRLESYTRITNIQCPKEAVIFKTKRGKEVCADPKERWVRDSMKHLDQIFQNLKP : 142
